Tested on: kiaa1001
PROTOCOL: Real-time quantitative PCR of PLsis marker gene expression
Format: cell-based, human
RUN PARAMETERS: HepG2 cells, 24 hr exposure, relative value, control group = 1.0, GAPDH internal standard, n=3
QUANTITY NAME: expression variation rate kiaa1001

Completed entries (count: 2):
Enquiry: Any idea what its expression variation rate kiaa1001 is? The molecule is CN(C)CCCN1c2ccccc2CCc2ccccc21 [imipramine]
Return: 2.11

Enquiry: Any idea what its expression variation rate kiaa1001 is? The molecule is CN1CCN(C(c2ccccc2)c2ccc(Cl)cc2)CC1 (stereo not shown) [chlorcyclizine]
Return: 2.47

A. Cc1cc(NS(=O)(=O)c2ccc(N)cc2)no1 [sulfamethoxazole]
B. CC/C(=C(\c1ccccc1)c1ccc(OCCN(C)C)cc1)c1ccccc1 [tamoxifen]
Enquiry: Which value of expression variation rate kiaa1001 is numerically greater: that of A or that of B ? Lab log: write the label of the selected item as the result.
Return: B
(B: 1.85, A: 0.84)
